test system: MDA-MB-435; test: Antiproliferative activity against human MDA-MB-435 cells assessed as cell growth inhibition at 10 uM relative to control; assay type: functional, cell-based
Listed next: entries and their corresponding IC50.

[
  {
    "COMPOUND": "COc1cc(/C=C2\\Oc3cc4occc4c(OC)c3C2=O)ccc1OCC(=O)Nc1ccccc1",
    "IC50 [µM]": 7.05
  },
  {
    "COMPOUND": "C#Cc1cccc(Nc2ncnc3cc(OCCOC)c(OCCOC)cc23)c1 [ERLOTINIB]",
    "IC50 [µM]": 7.05
  }
]

====

Listed next: entries and their corresponding IC50.
system: HT-29; experiment: Antiproliferative activity against human HT-29 cells assessed as cell growth inhibition; format: functional, cell-based

[
  {
    "MOLECULAR STRING": "CCOc1ccc2c(c1)O/C(=C\\c1ccc(C(F)(F)F)cc1)C2=O",
    "SUBJECT OF TEST": "HT-29",
    "IC50 [µM]": 9.12
  },
  {
    "MOLECULAR STRING": "O=C1/C(=C/c2ccc(C(F)(F)F)cc2)Oc2cc(O)ccc21",
    "SUBJECT OF TEST": "HT-29",
    "IC50 [µM]": 8.9
  },
  {
    "MOLECULAR STRING": "O=C1/C(=C/c2ccc(C(F)(F)F)cc2)Oc2cc(OCc3ccccc3)ccc21",
    "SUBJECT OF TEST": "HT-29",
    "IC50 [µM]": 4.12
  },
  {
    "MOLECULAR STRING": "CCCCCCCOc1ccc2c(c1)O/C(=C\\c1ccc(C(F)(F)F)cc1)C2=O",
    "SUBJECT OF TEST": "HT-29",
    "IC50 [µM]": 4.32
  },
  {
    "MOLECULAR STRING": "C=CCOc1ccc2c(c1)O/C(=C\\c1ccc(C(F)(F)F)cc1)C2=O",
    "SUBJECT OF TEST": "HT-29",
    "IC50 [µM]": 4.12
  },
  {
    "MOLECULAR STRING": "COc1ccc2c(c1)O/C(=C\\c1ccc(C(F)(F)F)cc1)C2=O",
    "SUBJECT OF TEST": "HT-29",
    "IC50 [µM]": 5.9
  }
]
